target-of-assay: UniProtKB P35916
Sequence (P35916 whole entry): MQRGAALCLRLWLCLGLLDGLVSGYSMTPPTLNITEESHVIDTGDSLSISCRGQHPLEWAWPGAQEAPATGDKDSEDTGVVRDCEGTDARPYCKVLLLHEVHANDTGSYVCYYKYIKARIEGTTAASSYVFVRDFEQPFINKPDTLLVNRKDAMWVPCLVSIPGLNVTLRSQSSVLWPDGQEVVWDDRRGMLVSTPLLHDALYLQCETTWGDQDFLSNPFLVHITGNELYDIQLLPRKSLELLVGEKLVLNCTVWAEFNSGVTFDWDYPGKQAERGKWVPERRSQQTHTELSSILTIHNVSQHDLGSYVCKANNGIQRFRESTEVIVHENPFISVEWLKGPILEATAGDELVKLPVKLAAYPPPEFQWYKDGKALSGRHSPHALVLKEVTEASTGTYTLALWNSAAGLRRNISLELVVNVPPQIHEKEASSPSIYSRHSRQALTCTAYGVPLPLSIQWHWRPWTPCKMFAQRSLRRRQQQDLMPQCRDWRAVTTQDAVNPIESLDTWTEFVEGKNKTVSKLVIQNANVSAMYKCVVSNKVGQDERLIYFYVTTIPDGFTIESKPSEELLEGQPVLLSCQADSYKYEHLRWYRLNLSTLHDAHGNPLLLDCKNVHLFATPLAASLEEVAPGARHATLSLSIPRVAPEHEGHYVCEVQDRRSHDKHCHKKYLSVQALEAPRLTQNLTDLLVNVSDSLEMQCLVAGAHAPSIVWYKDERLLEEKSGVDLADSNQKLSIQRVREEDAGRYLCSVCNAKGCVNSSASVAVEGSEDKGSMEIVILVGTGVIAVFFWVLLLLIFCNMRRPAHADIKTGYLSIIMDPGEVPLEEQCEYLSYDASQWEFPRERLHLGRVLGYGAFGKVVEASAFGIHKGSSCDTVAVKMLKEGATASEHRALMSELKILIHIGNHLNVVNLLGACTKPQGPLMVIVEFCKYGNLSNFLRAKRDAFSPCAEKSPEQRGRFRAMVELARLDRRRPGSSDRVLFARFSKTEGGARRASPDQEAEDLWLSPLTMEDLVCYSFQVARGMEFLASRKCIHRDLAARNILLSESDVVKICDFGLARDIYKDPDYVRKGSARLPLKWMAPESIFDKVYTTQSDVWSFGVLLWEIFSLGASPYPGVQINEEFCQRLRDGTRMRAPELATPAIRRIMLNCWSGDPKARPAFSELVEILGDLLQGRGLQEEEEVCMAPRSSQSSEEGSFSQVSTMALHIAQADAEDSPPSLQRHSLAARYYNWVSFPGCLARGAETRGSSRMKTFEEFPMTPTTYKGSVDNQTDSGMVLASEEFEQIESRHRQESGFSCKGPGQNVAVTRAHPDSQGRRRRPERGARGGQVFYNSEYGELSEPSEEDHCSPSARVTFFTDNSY
test-readout: pIC50
Worth noting: pIC50 values are minus log10 of concentrations stated in mol/L.

Query block: Provide one value: measured pIC50 of CC1=[N+](c2ccccc2)C(=O)C(C(=O)Nc2ccc(Oc3ccc4nc(NC(=O)C5CC5)cn4c3)c(F)c2)C=C1 (stereo unspecified)
Result block: 8.26

----------
method: Cytotoxicity against human EBC1 cells assessed as inhibition of tumour growth after 3 days by WST-8 assay
Type: functional, cell-based
assay-conditions: EBC-1, 72 h
test-readout: IC50 (nM)
Record the value in nM, omitting the unit from your answer.

Query block: Please give the documented IC50 of CN1CCN(C2CCN(C(=O)Nc3cc(Oc4ccc(NC(=O)C5(C(=O)Nc6ccc(F)cc6)CC5)c(F)c4)ccn3)CC2)CC1
Result block: 6.2

----------
method: Cytotoxicity against human Hs 746T cells assessed as inhibition of tumour growth after 3 days by WST-8 assay
Assay type: functional, cell-based
assay-conditions: Hs746T, 72 h
test-readout: IC50 (nM)
Use nM as the unit, but write only the number.

Query block: # return recorded IC50 for input CN1CCN(C2CCN(C(=O)Nc3cc(Oc4ccc(NC(=O)C5(C(=O)Nc6ccc(F)cc6)CC5)c(F)c4)ccn3)CC2)CC1 [GOLVATINIB]
Result block: 23

----------
target-of-assay: Vascular endothelial growth factor receptor 2 (Homo sapiens, UniProt P35968)
Sequence (P35968 whole entry): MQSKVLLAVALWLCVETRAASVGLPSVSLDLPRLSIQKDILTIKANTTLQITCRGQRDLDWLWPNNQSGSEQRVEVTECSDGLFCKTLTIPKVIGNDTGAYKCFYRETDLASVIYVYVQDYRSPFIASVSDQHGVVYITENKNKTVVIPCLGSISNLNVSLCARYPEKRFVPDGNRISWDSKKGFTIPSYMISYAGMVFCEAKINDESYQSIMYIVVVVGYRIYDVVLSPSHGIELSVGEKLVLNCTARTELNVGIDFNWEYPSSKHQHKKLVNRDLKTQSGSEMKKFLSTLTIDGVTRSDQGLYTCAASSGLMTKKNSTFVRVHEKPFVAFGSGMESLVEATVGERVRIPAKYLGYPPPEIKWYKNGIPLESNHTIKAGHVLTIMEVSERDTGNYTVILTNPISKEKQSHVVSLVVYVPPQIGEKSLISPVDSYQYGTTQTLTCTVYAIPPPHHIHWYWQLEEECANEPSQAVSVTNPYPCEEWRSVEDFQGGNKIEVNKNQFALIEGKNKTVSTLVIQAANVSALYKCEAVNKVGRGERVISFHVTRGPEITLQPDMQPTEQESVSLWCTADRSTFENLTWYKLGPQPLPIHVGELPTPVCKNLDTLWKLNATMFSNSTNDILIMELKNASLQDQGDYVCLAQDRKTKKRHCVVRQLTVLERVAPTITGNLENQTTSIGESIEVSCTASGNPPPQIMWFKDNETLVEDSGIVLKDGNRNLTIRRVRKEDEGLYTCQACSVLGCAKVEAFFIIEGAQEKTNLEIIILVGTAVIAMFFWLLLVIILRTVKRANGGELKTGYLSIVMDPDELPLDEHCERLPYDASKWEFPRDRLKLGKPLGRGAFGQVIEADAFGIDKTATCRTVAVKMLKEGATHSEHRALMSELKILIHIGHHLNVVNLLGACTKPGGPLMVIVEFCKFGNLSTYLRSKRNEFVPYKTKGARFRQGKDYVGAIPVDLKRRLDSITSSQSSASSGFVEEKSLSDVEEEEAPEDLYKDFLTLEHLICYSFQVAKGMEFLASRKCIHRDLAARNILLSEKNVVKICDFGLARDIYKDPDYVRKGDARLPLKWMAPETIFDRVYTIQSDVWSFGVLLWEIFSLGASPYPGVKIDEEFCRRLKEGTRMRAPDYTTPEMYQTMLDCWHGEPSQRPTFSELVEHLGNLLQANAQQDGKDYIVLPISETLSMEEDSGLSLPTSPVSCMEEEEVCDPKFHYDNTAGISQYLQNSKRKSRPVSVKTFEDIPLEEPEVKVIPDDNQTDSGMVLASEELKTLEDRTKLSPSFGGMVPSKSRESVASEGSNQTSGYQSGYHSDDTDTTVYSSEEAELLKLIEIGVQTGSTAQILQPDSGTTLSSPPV
method: Inhibition of VEGFR-2 autophosphorylation in HUVEC after 1 hr by Western blot analysis
test-readout: IC50 (nM)
Hi! Could you send only the number? It should be in nM, unit omitted.

Query block: Read off the recorded IC50 for CN1CCN(C2CCN(C(=O)Nc3cc(Oc4ccc(NC(=O)C5(C(=O)Nc6ccc(F)cc6)CC5)c(F)c4)ccn3)CC2)CC1
Result block: 16

----------
method: Cytotoxicity against HUVEC assessed as inhibition of VEGF-independent growth after 72 hrs by CellTiter-Glo method
Format: cell-based
assay-conditions: human, HUVEC cells
test-readout: GI50 at 72 h

Query block: Read off the recorded GI50 at 72 h for CNC(=O)c1cc2c(Oc3ccc(NC(=S)NC(=O)Cc4ccccc4)cc3F)ccnc2cc1OC
Result block: > 10 µM

----------
method: Cytotoxicity against human MKN45 cells assessed as inhibition of tumour growth after 3 days by WST-8 assay
Format: functional, cell-based
assay-conditions: MKN-45, 72 h
test-readout: IC50 (nM)
Lab book: enter the figure in nM, no units written.

Query block: Given the compound CN1CCN(C2CCN(C(=O)Nc3cc(Oc4ccc(NC(=O)C5(C(=O)Nc6ccc(F)cc6)CC5)c(F)c4)ccn3)CC2)CC1 , write its reported IC50.
Result block: 37
